molecular target: T1, human GPC3-His protein (human, UniProt P51654 25-559, limits assumed); test: SPR, antibody captured on Protein A chip, human GPC3-His injected, 1:1 Langmuir model;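 note: flow cell at 25 °C, antigen injected for 240 s at five twofold dilutions starting at 200 nM, dissociation followed up to 600 s, double-referenced sensorgrams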
T1 construct: also called human GPC3 protein; not shown: His tag
ENDPOINT: koff (s⁻¹)
Enter your answer as a number in s⁻¹; do not include the unit.

# example entries with known answers
BINDER	ENDPOINT	MEASURED NUMBER
hAb005LH2L1b (antibody, human IgG1, V domains shown, Humanized F3.54.12) VH: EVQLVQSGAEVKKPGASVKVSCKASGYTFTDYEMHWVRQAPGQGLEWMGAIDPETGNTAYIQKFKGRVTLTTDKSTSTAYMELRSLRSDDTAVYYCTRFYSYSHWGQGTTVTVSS VL: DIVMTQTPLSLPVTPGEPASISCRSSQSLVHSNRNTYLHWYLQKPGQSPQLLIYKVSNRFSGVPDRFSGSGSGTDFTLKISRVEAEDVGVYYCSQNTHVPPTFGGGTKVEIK	koff	0.00213
hAb006LH3L1c (antibody, human IgG1, V domains shown, Humanized F3.38.7) VH: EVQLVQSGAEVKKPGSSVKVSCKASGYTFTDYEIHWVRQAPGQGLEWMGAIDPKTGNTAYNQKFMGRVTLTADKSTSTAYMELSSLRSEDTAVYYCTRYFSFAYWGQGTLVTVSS VL: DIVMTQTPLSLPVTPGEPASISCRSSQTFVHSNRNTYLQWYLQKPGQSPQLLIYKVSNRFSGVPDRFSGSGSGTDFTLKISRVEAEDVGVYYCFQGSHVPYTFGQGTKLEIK	koff	0.001

API: the following record is the query input.
Return koff for the following binder: hAb006LH3L1b (antibody, human IgG1, V domains shown, Humanized F3.38.7) VH: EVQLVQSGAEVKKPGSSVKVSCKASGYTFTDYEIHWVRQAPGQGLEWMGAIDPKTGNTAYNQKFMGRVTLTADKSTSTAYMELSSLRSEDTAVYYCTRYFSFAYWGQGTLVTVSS VL: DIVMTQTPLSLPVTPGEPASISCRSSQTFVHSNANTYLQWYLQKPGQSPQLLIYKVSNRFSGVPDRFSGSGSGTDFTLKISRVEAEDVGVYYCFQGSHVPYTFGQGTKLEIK 0.00136
